biological target: T1, human 4-1BB, full length, on transfected cells (human, UniProt Q07011 24-255); assay: FACS, CHOK1-h4-1BB cells; Ab 0.00064 ug/ml
T1 construct: whole, on cells; also called CHOK1-h4-1BB
T1 sequence (Q07011 24-255): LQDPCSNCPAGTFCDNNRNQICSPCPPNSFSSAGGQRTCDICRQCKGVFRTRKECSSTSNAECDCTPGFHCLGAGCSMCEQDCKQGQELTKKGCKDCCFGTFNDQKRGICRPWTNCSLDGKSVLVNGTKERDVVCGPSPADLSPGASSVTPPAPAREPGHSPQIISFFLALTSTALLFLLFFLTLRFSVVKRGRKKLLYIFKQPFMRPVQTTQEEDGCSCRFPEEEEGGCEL
MEASURED_ENDPOINT: average fluorescence intensity (MFI)

BINDER: 119B6G5 (antibody, V domains shown) VH: EVQLLESGGGLVQPGGSLRLSCAASGFTFSNYAMSWVRQGPGKGLEWVSTIIGSGDSTYYTDSVKGRFTISRDNSKNTLFLQMNSLRAEDTAVYYCARDKSGWYYFDYWGQGTLVTVSS VL: DIQMTQSPSTLSASVGDRVTITCRASQSISNWLAWYQQKPGKAPKLLIYKASSLESGVPSRFSGSGSGTEFTLTISSLQPDDFATYYCQQYNDYFPITFGQGTRLEIK
MEASURED_ENDPOINT: average fluorescence intensity
MEASUREMENT: 5.1
--
BINDER: 57B3D10 (antibody, V domains shown, also called 4-1BB fully human antibody 57B3D10) VH: QVQLQESGPGLVKPSETLSLTCTVSGGSISSYYWSWIRQPPGKGLEWIGYIYYSGSTNYNPSLKSRVTISVDTSKSQFSLKLTSVTAADTAVYYCAKDSDYYGSGSYSYWYFDLWGRGTLVTVSS VL: EIVMTQSPATLSVSPGERATLSCRASQSVSSNLAWYQQKPGQAPRLLIYGASTRAPGIPARFSGSGSGTEFTLTISSLQSEDFAVYYCQQYNNWPLTFGGGTKVEIK
MEASURED_ENDPOINT: average fluorescence intensity
MEASUREMENT: 12.5
--
BINDER: 118F3A2 (antibody, V domains shown) VH: QVQLQQWGAGLLKPSETLSLTCGVYGGSFSTNYWSWIRQSPGKGLEWIGEINHSGNTEYNPSLKSRLTISIDTSKNQFSLKLTSVTAADTAVYYCARMGYHSPSFDFWGQGVLVTVSS VL: KIVMTQSPATLSVSPGERATLPCRVSQGIGSNLAWYQQKPGQAPRLLIYGASTRATGVPARFSGSGSGSEFTLTISSLQSEDLALYYCQQYNNWPLTFGGGTKVEIK
MEASURED_ENDPOINT: average fluorescence intensity
MEASUREMENT: 10.8
